This listing pairs compounds with measured Dmax.
# target: B-RAF G466V (Homo sapiens, UniProt P15056, G466V)
# Construct: expressed in transfected cells; host or cells: T-Rex 293 cells (Invitrogen #R71007)
# Sequence (P15056 whole entry G466V): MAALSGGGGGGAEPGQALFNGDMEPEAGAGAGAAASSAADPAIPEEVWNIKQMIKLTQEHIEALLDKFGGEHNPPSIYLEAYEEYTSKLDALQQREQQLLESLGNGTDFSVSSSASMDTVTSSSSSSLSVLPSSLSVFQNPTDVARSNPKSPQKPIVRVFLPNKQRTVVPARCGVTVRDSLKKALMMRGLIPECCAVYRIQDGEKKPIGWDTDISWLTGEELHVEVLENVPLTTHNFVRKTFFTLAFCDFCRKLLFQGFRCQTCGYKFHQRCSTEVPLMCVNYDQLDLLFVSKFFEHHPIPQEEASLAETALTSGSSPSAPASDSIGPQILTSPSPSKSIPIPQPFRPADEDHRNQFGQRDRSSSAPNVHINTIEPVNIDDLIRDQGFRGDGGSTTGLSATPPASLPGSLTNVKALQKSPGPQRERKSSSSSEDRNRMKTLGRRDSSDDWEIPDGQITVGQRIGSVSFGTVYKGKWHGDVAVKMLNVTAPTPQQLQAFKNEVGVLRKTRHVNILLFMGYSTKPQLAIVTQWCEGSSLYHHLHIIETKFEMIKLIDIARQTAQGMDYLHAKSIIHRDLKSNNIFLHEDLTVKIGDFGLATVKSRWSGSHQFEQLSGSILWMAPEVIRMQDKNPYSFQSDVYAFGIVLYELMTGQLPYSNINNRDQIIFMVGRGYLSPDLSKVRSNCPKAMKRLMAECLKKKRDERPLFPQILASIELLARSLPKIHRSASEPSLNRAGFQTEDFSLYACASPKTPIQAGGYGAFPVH
# assay_notes: Target protein degradation, assay B: T-Rex 293 cells, HA-B-RAF_G466V, 96 well format
# Type: cell-based
# measurement_setup: T-Rex 293 HA-B-RAF_G466V cells, 24 hours, Examples 1-82

Study these solved cases before continuing.
N#Cc1c(NS(=O)(=O)N2CC[C@@H](F)C2)ccc(F)c1Oc1ccc2ncn(-c3ccc(N4CCN(CC5CCN(c6ccc7c(c6)CN(C6CCC(=O)NC6=O)C7=O)CC5)CC4)nc3)c(=O)c2c1 (stereo partly drawn)
35 to 70%
N#Cc1c(NS(=O)(=O)N2CC[C@@H](F)C2)ccc(F)c1Oc1ccc2ncn(C3CCN(CCN4CCN(c5ccc6c(c5)CN(C5CCC(=O)NC5=O)C6=O)CC4)CC3)c(=O)c2c1 (stereo partly drawn)
35 to 70%

Kindly consider the entry below.
I would be grateful if you could share the reported Dmax for N#Cc1c(NS(=O)(=O)N2CC[C@@H](F)C2)ccc(F)c1Oc1ccc2ncn(-c3ccc(N4CCN(C(=O)CC5(O)CCN(c6ccc7c(c6)CN([C@H]6CCC(=O)NC6=O)C7=O)CC5)CC4)nc3)c(=O)c2c1 .
35 to 70%

----------
# target: B-RAF V600E (Homo sapiens, UniProt P15056, V600E)
# Construct: expressed in transfected cells; host or cells: T-Rex 293 cells (Invitrogen #R71007)
# Sequence (P15056 whole entry V600E): as the sequence (P15056 whole entry G466V) above, with V466G, V600E counted along it
# assay_notes: Target protein degradation, assay C: T-Rex 293 cells, HA-BRAF_V600E, 384 well format
# Assay type: cell-based
# measurement_setup: T-REx-293, Assay C, T-Rex 293 HA-BRAF_V600E cells, 24 hours, Examples 83-269
Reported Dmax values for the following compounds.

N#Cc1c(NS(=O)(=O)N2CC[C@@H](F)C2)ccc(F)c1Oc1ccc2ncn(-c3ccc(N4CCN(c5cc(N6CCN(c7ccc8c(c7)C(=O)N(C7CCC(=O)NC7=O)C8=O)CC6)ncn5)CC4)nc3)c(=O)c2c1 (some centres unmarked) [Example 168]
≤ 35%
N#Cc1c(NS(=O)(=O)N2CC[C@@H](F)C2)ccc(F)c1Oc1ccc2ncn(-c3ccc(N4CCC(CN5CC6(CCN(c7ccc8c(c7)CN([C@H]7CCC(=O)NC7=O)C8=O)CC6)C5)C4)cc3)c(=O)c2c1 (some centres unmarked) [Example 233]
35 to 70%
N#Cc1c(NS(=O)(=O)N2CC[C@@H](F)C2)ccc(F)c1Oc1ccc2ncn(-c3ccc(N4CCC(COCC5CCN(c6ccc7c(c6)C(=O)N(C6CCC(=O)NC6=O)C7=O)CC5)CC4)nc3)c(=O)c2c1 (some centres unmarked) [Example 144]
≤ 35%
N#Cc1c(NS(=O)(=O)N2CC[C@@H](F)C2)ccc(F)c1Oc1ccc2ncn(-c3ccc(N4CCN(CC5CCN(c6ccc7c(c6)CN(C6CCC(=O)NC6=O)C7=O)CC5)CC4)s3)c(=O)c2c1 (some centres unmarked) [Example 116]
≤ 35%

Now consider a different compound.
# get_value(readout= Dmax, system= B-RAF V600E (Homo sapiens, UniProt P15056, V600E)) for N#Cc1c(NS(=O)(=O)N2CC[C@@H](F)C2)ccc(F)c1Oc1ccc2ncn(-c3ccc(N4CCN(CC5CCN(c6ccc(C7CCC(=O)NC7=O)nc6)CC5)CC4)cc3)c(=O)c2c1 (some centres unmarked) [Example 95]
35 to 70%

The values you see were collected from patent US11957759B1.
